# system-name: Polyunsaturated fatty acid 5-lipoxygenase (Homo sapiens)
# Sequence (P09917 whole entry): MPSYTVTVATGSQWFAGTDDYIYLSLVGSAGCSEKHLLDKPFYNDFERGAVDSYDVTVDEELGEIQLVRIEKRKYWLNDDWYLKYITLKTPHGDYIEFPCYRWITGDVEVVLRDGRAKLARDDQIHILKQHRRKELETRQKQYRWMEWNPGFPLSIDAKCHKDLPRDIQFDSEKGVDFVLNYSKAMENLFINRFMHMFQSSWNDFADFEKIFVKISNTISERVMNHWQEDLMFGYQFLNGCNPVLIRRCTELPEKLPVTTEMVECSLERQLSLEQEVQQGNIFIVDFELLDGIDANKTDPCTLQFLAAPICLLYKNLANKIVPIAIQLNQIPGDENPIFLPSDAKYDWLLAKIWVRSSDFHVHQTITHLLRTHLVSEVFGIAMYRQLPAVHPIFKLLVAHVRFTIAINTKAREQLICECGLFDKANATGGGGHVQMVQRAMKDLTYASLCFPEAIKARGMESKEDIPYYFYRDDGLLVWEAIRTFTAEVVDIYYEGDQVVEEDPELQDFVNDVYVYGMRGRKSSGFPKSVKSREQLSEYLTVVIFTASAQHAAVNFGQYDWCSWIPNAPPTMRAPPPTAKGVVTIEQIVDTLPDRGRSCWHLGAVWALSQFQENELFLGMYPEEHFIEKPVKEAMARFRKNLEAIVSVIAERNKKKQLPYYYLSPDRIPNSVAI
# assay-info: Inhibition of 5-LO in human neutrophils using arachidonic acid as substrate preincubated for 15 mins measured after 10 mins by HPLC analysis
readout-kind: IC50 (µM)

| molecule | readout-kind | reading |
| --- | --- | --- |
| COc1cc(/C=C/C(=O)/C=C/c2cc(F)c(O)c(OC)c2)cc(F)c1O | IC50 | 8.1 |
| COc1cc(CCC(=O)CC(=O)CCc2cc(CCC(C)C)c(O)c(OC)c2)cc(CCC(C)C)c1O | IC50 | 2.9 |
| COc1cc(/C=C/c2cc(-c3ccc(O)c(OC)c3)[nH]n2)ccc1O | IC50 | 1.9 |
| COc1cc(/C=C/C(=O)CC(=O)/C=C/c2cc(F)c(O)c(OC)c2)cc(F)c1O | IC50 | 10 |
| COc1cc(/C=C/C(=O)CC(=O)/C=C/c2cc(CCC(C)C)c(O)c(OC)c2)cc(CCC(C)C)c1O | IC50 | 80.2 |

P = COc1cc(/C=C/c2cc(/C=C/c3ccc(O)c(OC)c3)[nH]n2)ccc1O [CURCUMIN PYRAZOLE]
Q = COc1cc(/C=C/C(=O)CC(=O)c2ccc(O)c(OC)c2)ccc1O
Quick one: lower IC50, P or Q ? Indicate your choice by writing its label.
P

a = COc1cc(/C=C/C(=O)/C=C/c2cc(CC=C(C)C)c(O)c(OC)c2)cc(CC=C(C)C)c1O
b = COc1cc(/C=C/C(=O)/C=C/c2ccc(O)c(OC)c2)ccc1O
Rank a against b by their IC50 values and give the higher one. // caller expects the label of the chosen entry
b
